# Target Or System: T1, cynoSIRPα (NP_001271679), Extracellular Domain + His-Tag (cynomolgus monkey)
# T1 construct: also called CySIRPα NP_001271679; not shown: His-Tag
# T1 chain: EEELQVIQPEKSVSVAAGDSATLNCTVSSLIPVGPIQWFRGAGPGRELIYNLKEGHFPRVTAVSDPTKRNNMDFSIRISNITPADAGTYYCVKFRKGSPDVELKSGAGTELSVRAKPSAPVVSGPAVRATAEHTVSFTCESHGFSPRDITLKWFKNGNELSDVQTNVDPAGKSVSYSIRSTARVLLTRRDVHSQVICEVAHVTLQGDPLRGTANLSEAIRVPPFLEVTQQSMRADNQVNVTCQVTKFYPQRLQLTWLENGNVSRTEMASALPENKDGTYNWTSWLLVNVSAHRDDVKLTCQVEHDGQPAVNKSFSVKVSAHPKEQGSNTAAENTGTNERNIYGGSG
# Assay: SPR, antibody captured on Protein A/G, ECD-His analyte, 1:1 fit
This listing pairs binders with measured koff.
Answer format: numeric, s⁻¹ implied, no suffix.

Below: 2 binders and their reported koff.
Antibody E13 (antibody, human IgG1, kappa, L234A L235A, V domains shown) VH: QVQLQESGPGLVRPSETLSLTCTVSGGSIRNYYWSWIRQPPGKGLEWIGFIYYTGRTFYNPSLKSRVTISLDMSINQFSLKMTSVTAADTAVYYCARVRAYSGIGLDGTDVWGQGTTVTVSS VL: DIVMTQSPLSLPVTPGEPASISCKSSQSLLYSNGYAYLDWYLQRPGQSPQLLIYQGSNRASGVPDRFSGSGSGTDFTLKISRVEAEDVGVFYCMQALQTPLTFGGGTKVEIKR :: 0.00755
Antibody E15 (antibody, human IgG1, kappa, L234A L235A, V domains shown) VH: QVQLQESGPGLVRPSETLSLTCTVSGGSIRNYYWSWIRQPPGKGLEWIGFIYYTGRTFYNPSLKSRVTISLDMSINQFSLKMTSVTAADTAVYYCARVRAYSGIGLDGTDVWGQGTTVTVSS VL: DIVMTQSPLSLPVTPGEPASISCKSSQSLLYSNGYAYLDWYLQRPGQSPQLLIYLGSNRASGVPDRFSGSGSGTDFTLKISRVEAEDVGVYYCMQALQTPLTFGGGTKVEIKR :: 0.012

Would you mind telling me what koff value was observed for Antibody E16 (antibody, human IgG1, kappa, L234A L235A, V domains shown) VH: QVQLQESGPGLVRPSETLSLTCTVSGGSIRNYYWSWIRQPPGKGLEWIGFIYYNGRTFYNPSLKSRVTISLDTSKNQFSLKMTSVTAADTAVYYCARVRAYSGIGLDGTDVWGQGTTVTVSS VL: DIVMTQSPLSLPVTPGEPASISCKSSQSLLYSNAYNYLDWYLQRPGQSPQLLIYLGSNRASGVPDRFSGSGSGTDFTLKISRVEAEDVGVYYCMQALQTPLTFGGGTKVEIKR ?
0.0158

Would you mind telling me what koff value was observed for Antibody E17 (antibody, human IgG1, kappa, L234A L235A, V domains shown) VH: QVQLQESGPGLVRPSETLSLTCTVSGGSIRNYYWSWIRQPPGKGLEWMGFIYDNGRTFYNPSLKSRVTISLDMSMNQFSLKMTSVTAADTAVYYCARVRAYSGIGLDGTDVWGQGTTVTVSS VL: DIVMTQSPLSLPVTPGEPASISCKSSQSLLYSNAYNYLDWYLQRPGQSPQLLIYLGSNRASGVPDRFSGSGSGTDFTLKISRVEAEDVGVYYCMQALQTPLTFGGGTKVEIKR ?
0.0126
